// data source = patent US20220135638A1

# assayTarget: T1, full-length human GIPR (GenBank NM_000164) with an N-terminal FLAG tag on HEK-293T cells (human), P48546
# T1 chain: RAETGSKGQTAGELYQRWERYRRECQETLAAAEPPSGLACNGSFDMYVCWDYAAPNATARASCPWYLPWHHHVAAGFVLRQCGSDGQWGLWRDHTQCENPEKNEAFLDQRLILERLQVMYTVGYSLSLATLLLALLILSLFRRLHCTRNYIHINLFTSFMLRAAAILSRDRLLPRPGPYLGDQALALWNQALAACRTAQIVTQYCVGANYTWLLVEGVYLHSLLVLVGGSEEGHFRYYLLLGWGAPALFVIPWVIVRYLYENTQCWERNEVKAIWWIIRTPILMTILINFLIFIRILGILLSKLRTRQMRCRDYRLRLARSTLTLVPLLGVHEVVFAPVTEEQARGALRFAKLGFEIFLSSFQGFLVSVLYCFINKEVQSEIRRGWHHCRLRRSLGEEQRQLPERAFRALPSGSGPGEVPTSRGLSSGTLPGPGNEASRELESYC
# procedureText: cell-based or functional assay
Numbered stars: 1 amine (or outer) side, 2 acyl side, 3 side chain; on linkers, the order of the positions; unused ones are H or OH. Square brackets hold non-standard residues; d marks the D form. Primed or numbered codes have the meaning given here. Side chains are listed from the residue outwards. Ends that are not written are not given here. * marks the point of attachment. C20 diacid = O=C(O)CCCCCCCCCCCCCCCCCCC(=O)*; C18 diacid = O=C(O)CCCCCCCCCCCCCCCCC(=O)*; C16 diacid = O=C(O)CCCCCCCCCCCCCCC(=O)*; γGlu = O=C(O)[C@H](CCC(=O)[*:2])N[*:1]; Iva = CC[C@](C)(N)C(=O)O; PEG3′ = not defined here; Aib = CC(C)(N)C(=O)O
# reported GIP EC50(pM); entries follow
Report the value in pM with no unit label.

Field: example entries. Status: answers known.
[
  {
    "binder": "Y[Aib]EGTFISDYSIALDR[Aib]HQ[Aib]NFVNW[Iva]LAQRPSSGAPPK([PEG3′-γGlu-C18 diacid])S (ends and bridges not checked) [Compound No. 531]",
    "GIP EC50(pM)": 1.02
  },
  {
    "binder": "Y[Aib]EGTFISDYSIALDR[Aib]HQ[Aib]NFVNW[Iva]LAQRPSSGAPK([PEG3′-PEG3′-C16 diacid])PSR (ends and bridges not checked) [Compound No 927]",
    "GIP EC50(pM)": 1.3
  },
  {
    "binder": "Y[Aib]EGTFISDYSIALDR[Aib]HQ[Aib]NFVNW[Iva]LAQRPSSGAPK([Gly-Gly-Gly-Gly-Gly-γGlu-C16 diacid])PS (ends and bridges not checked) [Compound No. 456]",
    "GIP EC50(pM)": 0.57
  }
]

Next item in the queue.
Inquiry: Reported GIP EC50(pM), binder Y[Aib]EGTFISDYSIALDR[Aib]HQ[Aib]NFVNW[Iva]LAQRPSK([PEG3′-γGlu-C20 diacid])GAPPPS (ends and bridges not checked) [Compound No. 517] : ____
Reply text: 1.99
